EC50 listing for selected compounds.
targetEntity: CFTR G551D mutant (Homo sapiens, UniProt P13569, G551D)
Sequence (P13569 whole entry G551D): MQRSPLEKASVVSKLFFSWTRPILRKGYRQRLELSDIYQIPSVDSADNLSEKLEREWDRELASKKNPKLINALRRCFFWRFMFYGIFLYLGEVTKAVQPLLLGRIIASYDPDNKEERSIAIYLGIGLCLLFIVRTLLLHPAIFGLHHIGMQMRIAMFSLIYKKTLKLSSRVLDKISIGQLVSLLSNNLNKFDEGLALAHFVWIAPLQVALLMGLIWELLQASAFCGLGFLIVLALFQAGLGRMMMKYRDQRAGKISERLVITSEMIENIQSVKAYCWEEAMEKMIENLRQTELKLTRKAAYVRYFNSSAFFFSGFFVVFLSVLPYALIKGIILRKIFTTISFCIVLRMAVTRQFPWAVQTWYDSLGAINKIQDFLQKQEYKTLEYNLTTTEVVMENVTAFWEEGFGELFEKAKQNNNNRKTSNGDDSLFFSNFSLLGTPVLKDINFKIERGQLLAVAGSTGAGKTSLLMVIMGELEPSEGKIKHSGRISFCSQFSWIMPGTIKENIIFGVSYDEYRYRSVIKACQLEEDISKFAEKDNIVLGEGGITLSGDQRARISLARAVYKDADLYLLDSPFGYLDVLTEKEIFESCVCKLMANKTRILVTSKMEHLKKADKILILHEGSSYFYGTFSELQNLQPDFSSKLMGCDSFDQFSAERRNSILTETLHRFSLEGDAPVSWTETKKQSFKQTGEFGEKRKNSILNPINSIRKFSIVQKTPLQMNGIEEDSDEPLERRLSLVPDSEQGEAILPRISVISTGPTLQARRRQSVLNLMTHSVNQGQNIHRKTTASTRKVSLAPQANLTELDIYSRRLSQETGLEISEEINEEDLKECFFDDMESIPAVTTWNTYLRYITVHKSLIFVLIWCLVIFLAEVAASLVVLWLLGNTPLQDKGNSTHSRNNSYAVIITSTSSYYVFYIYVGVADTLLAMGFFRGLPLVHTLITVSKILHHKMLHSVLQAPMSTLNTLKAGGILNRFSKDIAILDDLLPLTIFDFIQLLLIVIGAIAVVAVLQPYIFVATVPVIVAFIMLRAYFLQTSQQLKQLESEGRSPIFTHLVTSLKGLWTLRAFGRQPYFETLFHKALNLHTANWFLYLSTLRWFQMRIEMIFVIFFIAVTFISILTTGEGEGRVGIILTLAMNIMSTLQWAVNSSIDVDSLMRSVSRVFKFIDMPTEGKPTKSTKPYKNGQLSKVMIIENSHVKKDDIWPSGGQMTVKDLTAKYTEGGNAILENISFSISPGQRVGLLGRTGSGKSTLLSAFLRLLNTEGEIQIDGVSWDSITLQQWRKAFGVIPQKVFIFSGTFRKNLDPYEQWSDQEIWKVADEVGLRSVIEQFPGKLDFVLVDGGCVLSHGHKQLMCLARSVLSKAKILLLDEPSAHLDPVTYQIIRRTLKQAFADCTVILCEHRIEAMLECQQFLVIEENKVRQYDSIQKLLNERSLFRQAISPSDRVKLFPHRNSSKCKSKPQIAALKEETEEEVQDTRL
assayProtocol: YFP-halide influx assay for the CFTR-G551D mutation
recordedConditions: HEK293 cells expressing CFTR G551D and YFP reporter; forskolin 10.67 μM

Below: 3 compounds and their reported EC50.
> print(dat)
                                   compound  experimentalresult
1  Nc1cc(S(=O)(=O)c2ccc(OC(F)(F)F)cc2)cnc1-c1nnc(C(O)C(F)(F)F)o1 (stereo not shown) [Compound 4]           > 6.77 µM
2  CC(O)(c1nnc(-c2ncc(S(=O)(=O)c3ccc(OC(F)(F)F)cc3)cc2N)o1)C(F)(F)F (stereo not shown) [Compound 3]            0.181 µM
3  Nc1cc(S(=O)(=O)c2ccc(OC(F)(F)F)cc2)cnc1-c1ncc(CO)s1 [Compound 5]             > 10 µM

# evaluate next
# input compound: Nc1cc(S(=O)(=O)c2ccc(OC(F)(F)F)cc2)cnc1-c1nnc(CO)o1 [Compound 1] ; wanted: its EC50
> 10 µM

Origin of the recorded values: patent US10138227B2
